B1: ADAMTSL2 (parent)
chain: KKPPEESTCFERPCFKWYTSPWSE

# Variants of: B1
# assay.overview: protein stability index of a GFP-peptide fusion (GPS, HEK-293T) (PSI 1-6); higher = more stable;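 further: lentivirally expressed fusions sorted by FACS into six bins by GFP to DsRed ratio, PSI derived from sequencing read proportions per bin multiplied by bin number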
# details: c terminus: a fixed tail appended
parameter.measured: protein stability index
Reply with just the number.

In [3]: df
Out[3]:
   mutation_id  number
0          K1L    2.35
1         F15C    2.93
2         F15A    2.75

Query: Consider the variant shown here: Y18L What is its recorded protein stability index?
Reply: 2.45

Query: For the variant W17K , what protein stability index is on record?
Reply: 3.53

Query: May I ask what protein stability index has been recorded for Y18H ?
Reply: 2.97
